- PROCEDURE TEXT: Simulated gastrointestinal fluid solubility test (SGF, FaSSIF, FeSSIF)
- Assay type: physicochemical
- TEST CONTEXT: fed state simulated intestinal fluid (FeSSIF), 37 °C, pH 4.98, fessif, thermodynamic from solid, FeSSIF (pH = 4.98), 37° C., after 24 hours; read-out: Solubility
PROPERTY NAME: solubility at 24 h (µg/mL)
Answers are plain numbers, in µg/mL.

Enquiry: So what's the measured solubility at 24 h for this one? O=S1(=O)CCN(Cc2cc(NC3CCOCC3)c3[nH]c(-c4ccccc4)cc3c2)CC1 [Sulfate]
Return: 130

* * *

- PROCEDURE TEXT: Solubility test of sulfate (Crystalline form III) in various solvents
- Type: physicochemical
- TEST CONTEXT: organic solvent or mixture, thermodynamic from solid; CHCl3, 25° C.; read-out: Solubility
PROPERTY NAME: solubility

Enquiry: Can you look up the measured solubility of O=S1(=O)CCN(Cc2cc(NC3CCOCC3)c3[nH]c(-c4ccccc4)cc3c2)CC1 [Sulfate] for me?
Return: < 2000 µg/mL

* * *

- PROCEDURE TEXT: Solubility test of sulfate (Crystalline form III) in various solvents
- Type: physicochemical
- TEST CONTEXT: organic solvent or mixture, thermodynamic from solid; EtOAc, 50° C.; read-out: Solubility
PROPERTY NAME: solubility

Enquiry: Which solubility is reported for this compound? O=S1(=O)CCN(Cc2cc(NC3CCOCC3)c3[nH]c(-c4ccccc4)cc3c2)CC1 [Sulfate]
Return: < 2000 µg/mL

* * *

- PROCEDURE TEXT: Oral administration pharmacokinetic test using mice
- TEST CONTEXT: mice, oral, 10 mg/kg
PROPERTY NAME: Cmax

For every record below, what is its Cmax?
1. CS(=O)(=O)O.O=S1(=O)CCN(Cc2cc(NC3CCOCC3)c3[nH]c(-c4ccccc4)cc3c2)CC1 [Mesylate]
2. Cc1ccc(S(=O)(=O)O)cc1.O=S1(=O)CCN(Cc2cc(NC3CCOCC3)c3[nH]c(-c4ccccc4)cc3c2)CC1 [Tosylate]

Return:
1: 2595.2 ng/mL; 2: 3151.3 ng/mL

* * *

- PROCEDURE TEXT: Solubility test of sulfate (Crystalline form III) in various solvents
- Format: physicochemical
- TEST CONTEXT: aqueous with cosolvent or surfactant or cyclodextrin, thermodynamic from solid; Acetic acid-H2O (1:1), 50° C.; read-out: Solubility
PROPERTY NAME: solubility

Enquiry: # query: solubility of entry O=S1(=O)CCN(Cc2cc(NC3CCOCC3)c3[nH]c(-c4ccccc4)cc3c2)CC1 [Sulfate]
Return: 300 to 599 mg/mL

* * *

- PROCEDURE TEXT: Physicochemical stability test of free form and 5 salts (60° C., 40° C./75% humidity, light)
- TEST CONTEXT: Dark control
Kindly supply the reported Purity change values for the records listed here.

O=S1(=O)CCN(Cc2cc(NC3CCOCC3)c3[nH]c(-c4ccccc4)cc3c2)CC1 [Sulfate]
+0.02%

// for each molecule below, give its Purity change
1. O=C(O)/C=C\C(=O)O.O=S1(=O)CCN(Cc2cc(NC3CCOCC3)c3[nH]c(-c4ccccc4)cc3c2)CC1 [Maleate]
2. Cl.O=S1(=O)CCN(Cc2cc(NC3CCOCC3)c3[nH]c(-c4ccccc4)cc3c2)CC1 [Hydrochloride]

Return:
1. +0.01%
2. +0.05%
